target: human adrenergic receptor α1B (Homo sapiens); experiment: Intrinsic activity, aequorin luminescence functional assay at α1B-AR; type: cell-based; settings: agonist/antagonist profile
Sequence (P35368 whole entry): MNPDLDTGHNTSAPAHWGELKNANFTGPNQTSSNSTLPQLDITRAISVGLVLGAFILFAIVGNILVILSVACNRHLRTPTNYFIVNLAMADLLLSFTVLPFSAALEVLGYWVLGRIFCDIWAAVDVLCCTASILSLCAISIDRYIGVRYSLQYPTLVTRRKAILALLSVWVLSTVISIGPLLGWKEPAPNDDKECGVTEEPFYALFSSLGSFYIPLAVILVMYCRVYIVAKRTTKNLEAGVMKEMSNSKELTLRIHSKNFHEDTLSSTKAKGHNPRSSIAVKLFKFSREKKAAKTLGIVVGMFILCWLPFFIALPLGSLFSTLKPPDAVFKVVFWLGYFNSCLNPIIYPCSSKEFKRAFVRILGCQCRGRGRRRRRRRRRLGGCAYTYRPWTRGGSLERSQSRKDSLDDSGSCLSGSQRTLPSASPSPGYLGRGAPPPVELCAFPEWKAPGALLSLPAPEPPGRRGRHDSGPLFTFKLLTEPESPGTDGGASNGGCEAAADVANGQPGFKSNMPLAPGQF
Structures can show the parent of a compound that is named as a salt.
PROPERTY_MEASURED: α1B-AR Profile

CC1(C)C(=O)N(Cc2ccc(Cl)cc2Cl)C(=O)N1CC(O)CN1CCN(c2ccc(F)cc2)CC1 (centres unmarked) = Antagonist
COc1cccc(N2CCN(CC(O)CN3C(=O)N(Cc4ccc(Cl)cc4Cl)C(=O)C3(C)C)CC2)c1.Cl (centres unmarked) = Antagonist
CC1(C)C(=O)N(Cc2ccc(Cl)cc2Cl)C(=O)N1CCCN1CCN(c2cccc(Cl)c2Cl)CC1.Cl = Antagonist
CC1(C)C(=O)N(Cc2ccc(Cl)cc2Cl)C(=O)N1CCCCCN1CCN(c2ccccc2)CC1.Cl = Antagonist

## Task What does the data say about its α1B-AR Profile? Entry: CC1(C)C(=O)N(Cc2ccc(Cl)cc2Cl)C(=O)N1CC(O)CN1CCN(c2ccccc2C#N)CC1.Cl (centres unmarked)
## Result Antagonist

## Task Value lookup for α1B-AR Profile; key = COc1cc2nc(N3CCN(C(=O)C4CCCO4)CC3)nc(N)c2cc1OC (centres unmarked) [Terazosin, terazosin hydrochloride, reference compound]
## Result Antagonist

## Task I'd like to know its α1B-AR Profile. The molecule in question is CC1(C)C(=O)N(Cc2ccc(Cl)cc2Cl)C(=O)N1CC(O)CN1CCN(c2ccc(F)cc2F)CC1 (centres unmarked)
## Result Antagonist

## Task Can you share its α1B-AR Profile? I mean this molecule: CCOc1ccccc1OCCN[C@H](C)Cc1ccc(OC)c(S(N)(=O)=O)c1 [Tamsulosin, tamsulosin hydrochloride, reference compound]
## Result Antagonist

## Task // α1B-AR Profile lookup, key: COc1ccccc1N1CCN(CCCN2C(=O)N(Cc3ccc(Cl)cc3Cl)C(=O)C2(C)C)CC1.Cl
## Result Antagonist

## Task Query (molecule): CC1(C)C(=O)N(Cc2ccc(Cl)cc2Cl)C(=O)N1CC(O)CN1CCN(c2ccccc2F)CC1 (centres unmarked) ; field requested: α1B-AR Profile
## Result Antagonist
